The entries below are paired with their reported Percent cleavage.
# subject of test: AxCT mask27 EGFR EH104 L041 version 1
Number in %, nothing else.

INSERT INTO results (protein, value_units, reported_measurement) VALUES
  ('Matriptase (protein) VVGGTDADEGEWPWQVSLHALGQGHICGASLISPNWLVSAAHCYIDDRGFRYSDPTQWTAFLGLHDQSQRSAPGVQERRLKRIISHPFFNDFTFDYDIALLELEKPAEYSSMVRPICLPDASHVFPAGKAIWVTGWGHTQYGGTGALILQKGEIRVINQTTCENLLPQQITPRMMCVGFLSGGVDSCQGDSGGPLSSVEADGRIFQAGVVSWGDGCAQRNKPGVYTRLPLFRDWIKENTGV', '%', 62);

### Prompt Recorded Percent cleavage for MMP-12 (protein) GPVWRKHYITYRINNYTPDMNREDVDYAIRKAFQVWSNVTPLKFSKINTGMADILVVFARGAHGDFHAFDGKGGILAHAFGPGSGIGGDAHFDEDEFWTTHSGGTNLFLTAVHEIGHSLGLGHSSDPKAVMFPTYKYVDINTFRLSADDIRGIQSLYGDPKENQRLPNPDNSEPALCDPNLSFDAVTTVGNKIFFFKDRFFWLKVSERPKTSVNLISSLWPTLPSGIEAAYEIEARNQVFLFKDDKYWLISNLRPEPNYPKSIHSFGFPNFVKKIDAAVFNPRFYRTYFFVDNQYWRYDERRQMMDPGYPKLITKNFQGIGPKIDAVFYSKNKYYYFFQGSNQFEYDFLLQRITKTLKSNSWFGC , please?
### Response 0
